Where do these numbers come from? They come from paper PMC5681660.

- systemTested: human NTCP (Homo sapiens)
- Sequence (Q14973 whole entry): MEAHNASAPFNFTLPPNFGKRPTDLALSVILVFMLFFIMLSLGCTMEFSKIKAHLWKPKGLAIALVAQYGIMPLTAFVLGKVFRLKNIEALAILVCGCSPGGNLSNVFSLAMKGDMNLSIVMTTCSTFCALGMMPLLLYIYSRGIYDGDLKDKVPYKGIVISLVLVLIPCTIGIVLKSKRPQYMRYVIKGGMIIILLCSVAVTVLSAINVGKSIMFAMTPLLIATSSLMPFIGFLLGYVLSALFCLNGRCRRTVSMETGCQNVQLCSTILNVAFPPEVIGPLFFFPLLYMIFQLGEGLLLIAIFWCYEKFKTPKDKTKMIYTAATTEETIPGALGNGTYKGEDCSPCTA
- assaySummary: Screening taurocholate uptake assay (96-well, [14C]taurocholate, 10 µM drug)
- recordedConditions: Prestwick library screen, 10 µM drug; B-score of taurocholate uptake
I'd appreciate it if you could supply B-score functional assay values for the items below.
API note: the answer field is a bare number with no unit suffix.

q: Under human NTCP (Homo sapiens): B-score functional assay value of Nc1ccc(S(=O)(=O)Nc2ncccn2)cc1 [Sulfadiazine] ?
a: 0.878

q: Under human NTCP (Homo sapiens): B-score functional assay value of `Br.COc1ccc2c(c1)[C@]13CCCC[C@@H]1[C@H](C2)N(C)CC3.O` ?
a: 0.044

q: Under human NTCP (Homo sapiens): B-score functional assay value of CC1(C)NC(=O)N(c2ccc([N+](=O)[O-])c(C(F)(F)F)c2)C1=O [Nilutamide] ?
a: 5.352

q: Under human NTCP (Homo sapiens): B-score functional assay value of CC(C(=O)O)c1ccc(C(=O)c2ccccc2)s1 (stereo not drawn) [Tiaprofenic acid] ?
a: 0.836

q: Under human NTCP (Homo sapiens): B-score functional assay value of CCN(CC)CCNC(=O)c1cc(Br)c(N)cc1OC [Bromopride] ?
a: 0.033

q: Under human NTCP (Homo sapiens): B-score functional assay value of Cl.NCC(O)c1ccc(O)cc1 (racemic) [(+,-)-Octopamine hydrochloride] ?
a: 2.044

q: Under human NTCP (Homo sapiens): B-score functional assay value of O=C([O-])[C@H]1/C(=C/CO)O[C@@H]2CC(=O)N21.[K+] [Clavulanate potassium salt] ?
a: 0.008

q: Under human NTCP (Homo sapiens): B-score functional assay value of CCn1cc(C(=O)O)c(=O)c2cnc(N3CCCC3)nc21 [Piromidic acid] ?
a: 1.197

q: Under human NTCP (Homo sapiens): B-score functional assay value of COc1ccc(C(Cl)=C(c2ccc(OC)cc2)c2ccc(OC)cc2)cc1 [Chlorotrianisene] ?
a: 0.481
